Values were extracted from patent US20230242538A1.

- TGT: A. fumigatus enzyme (AfPanK) (Aspergillus fumigatus)
- Sequence (Q4WWV3 entry or part of it): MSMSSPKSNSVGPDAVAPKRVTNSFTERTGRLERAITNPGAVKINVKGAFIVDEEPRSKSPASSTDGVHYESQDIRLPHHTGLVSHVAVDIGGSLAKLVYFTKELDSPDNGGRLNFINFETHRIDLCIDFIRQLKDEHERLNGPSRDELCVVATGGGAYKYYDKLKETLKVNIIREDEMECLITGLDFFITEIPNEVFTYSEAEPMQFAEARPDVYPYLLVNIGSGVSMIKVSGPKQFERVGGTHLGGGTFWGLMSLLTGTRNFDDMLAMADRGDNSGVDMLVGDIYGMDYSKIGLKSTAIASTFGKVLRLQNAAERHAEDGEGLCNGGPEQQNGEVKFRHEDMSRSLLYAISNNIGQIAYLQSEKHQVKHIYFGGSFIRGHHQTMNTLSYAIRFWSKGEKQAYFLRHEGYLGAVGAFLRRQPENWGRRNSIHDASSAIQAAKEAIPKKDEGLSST
- ASSAY_REMARKS: Inhibition of A. fumigatus pantothenate kinase (AfPanK)
- Assay type: biochemical
- SETUP_CONDITIONS: Table 2; read-out: A. fum. IC50
pIC50: −log10 of the molar value.
OUTCOME_MEASURE: pIC50

[[record]]
structure_smiles = "Cc1ccccc1-c1nc2[nH]c(CNc3ccccc3)cc(=O)n2n1"
outcome_measure = "pIC50"
measured_result = 5.00

[[record]]
structure_smiles = "CC(C)(C)c1ccc(CNc2nc3[nH]c(CN4CCCCC4)cc(=O)n3n2)cc1"
outcome_measure = "pIC50"
measured_result = 5.74

[[record]]
structure_smiles = "CN1CCN(Cc2cc(=O)n3nc(NCc4ccc(C(C)(C)C)cc4)nc3[nH]2)CC1"
outcome_measure = "pIC50"
measured_result = 6.05

[[record]]
structure_smiles = "CC(C)c1ccc(CNc2nc3[nH]c(CN4CCCC4)cc(=O)n3n2)cc1"
outcome_measure = "pIC50"
measured_result = 4.96

[[record]]
structure_smiles = "CNc1cc(CN2CCOCC2)nc2nc(NCc3ccc(C(C)(C)C)cc3)nn12"
outcome_measure = "pIC50"
measured_result = 4.55

[[record]]
structure_smiles = "Cc1cc(=O)n2nc(NCc3ccc(C(C)C)cc3)nc2[nH]1"
outcome_measure = "pIC50"
measured_result = 6.57

[[record]]
structure_smiles = "CC(C)(C)c1ccc(CNc2nc3[nH]c(CN4CCOCC4)cc(=O)n3n2)cc1"
outcome_measure = "pIC50"
measured_result = 6.59

[[record]]
structure_smiles = "CC(C)c1ccc(CNc2nc3[nH]c(CN4CCOCC4)cc(=O)n3n2)cc1"
outcome_measure = "pIC50"
measured_result = 6.60

[[record]]
structure_smiles = "CN(C)c1cc(CN2CCOCC2)nc2nc(NCc3ccc(C(C)(C)C)cc3)nn12"
outcome_measure = "pIC50"
measured_result = 4.36


* * *

- TGT: Cab1 (Saccharomyces cerevisiae, UniProt Q04430)
- Construct: His6; made in house
- Sequence (Q04430 whole entry): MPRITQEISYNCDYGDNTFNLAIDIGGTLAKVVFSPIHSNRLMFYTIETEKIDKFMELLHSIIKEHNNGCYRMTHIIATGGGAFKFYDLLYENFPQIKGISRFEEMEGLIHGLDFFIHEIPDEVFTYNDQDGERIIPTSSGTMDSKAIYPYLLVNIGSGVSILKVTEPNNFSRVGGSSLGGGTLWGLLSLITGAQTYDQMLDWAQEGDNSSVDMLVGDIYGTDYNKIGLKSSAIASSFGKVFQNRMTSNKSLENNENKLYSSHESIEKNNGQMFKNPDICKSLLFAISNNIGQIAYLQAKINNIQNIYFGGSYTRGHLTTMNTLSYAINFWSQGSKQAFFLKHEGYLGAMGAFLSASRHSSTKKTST
- ASSAY_REMARKS: Inhibition of Cab1 pantothenate kinase
- Assay type: biochemical
OUTCOME_MEASURE: IC50

[[record]]
compound = "CC(C)c1ccc(CNc2nc3[nH]c(CN4CCOCC4)cc(=O)n3n2)cc1 [Compound B1]"
outcome_measure = "IC50"
measured_result = "0.43 µM"

[[record]]
compound = "CC(C)c1ccc(CNc2nc3[nH]c(CN4CCCC4)cc(=O)n3n2)cc1 [Compound B4]"
outcome_measure = "IC50"
measured_result = "> 100 µM"

[[record]]
compound = "Cc1ccccc1-c1nc2[nH]c(CNc3ccccc3)cc(=O)n2n1 [Compound B3]"
outcome_measure = "IC50"
measured_result = "> 100 µM"

[[record]]
compound = "Cc1cc(=O)n2nc(NCc3ccc(C(C)C)cc3)nc2[nH]1 [Compound B2]"
outcome_measure = "IC50"
measured_result = "> 100 µM"


* * *

- TGT: A. fumigatus enzyme (AfPanK) (Aspergillus fumigatus)
- ASSAY_REMARKS: Inhibition of A. fumigatus pantothenate kinase (AfPanK)
- Format: biochemical
- SETUP_CONDITIONS: Table 1; read-out: A. fum. IC50
OUTCOME_MEASURE: log10(IC50) (log10 of the value in µM)

[[record]]
compound = "CC(C)(C)c1ccc(CNc2nc3nc(CN4CCOCC4)cc(OCC(N)=O)n3n2)cc1 [Compound A11]"
outcome_measure = "log10(IC50)"
measured_result = 1.79

[[record]]
compound = "CC(C)(C)c1ccc(CNc2nc3nc(CN4CCOCC4)cc(OCC(=O)O)n3n2)cc1 [Compound A14]"
outcome_measure = "log10(IC50)"
measured_result = 1.89

[[record]]
compound = "Cc1cc(C(=O)NCC(N)=O)n2nc(NCc3ccc(C(C)(C)C)cc3)nc2n1 [Compound A4]"
outcome_measure = "log10(IC50)"
measured_result = 0.38

[[record]]
compound = "CC(=O)N1CCN(Cc2cc(=O)n3nc(NCc4ccc(C(C)(C)C)cc4)nc3[nH]2)CC1 [Compound A1]"
outcome_measure = "log10(IC50)"
measured_result = -1.44

[[record]]
compound = "CN1CCN(Cc2cc(=O)n3nc(-c4ccc(C(C)(C)C)cc4)nc3[nH]2)CC1 [Compound A5]"
outcome_measure = "log10(IC50)"
measured_result = 0.74

[[record]]
compound = "CC(C)(C)c1ccc(CNc2nc3nc(CN4CCOCC4)cc(OCCO)n3n2)cc1 [Compound A12]"
outcome_measure = "log10(IC50)"
measured_result = 1.83

[[record]]
compound = "CC(C)(C)OC(=O)N1CCN(Cc2cc(=O)n3nc(NCc4ccc(C(C)(C)C)cc4)nc3[nH]2)CC1 [Compound A2]"
outcome_measure = "log10(IC50)"
measured_result = -1.08

[[record]]
compound = "COc1cc(CN2CCOCC2)nc2nc(NCc3ccc(C(C)(C)C)cc3)nn12 [Compound A6]"
outcome_measure = "log10(IC50)"
measured_result = 1.49

[[record]]
compound = "CC(C)(C)c1ccc(CNc2nc3nc(CN4CCOCC4)cc(N)n3n2)cc1 [Compound A13]"
outcome_measure = "log10(IC50)"
measured_result = 1.85

